# MEASUREMENT_DESCRIPTION: Dissociation constant, borocycle pKa of the compound
# Type: physicochemical
REPORTED_ENDPOINT: pKa
Give a plain numeric answer without units written out.

Request: Requested field: pKa. Item: N=C(N)c1ccc(CC2OB(O)c3cc(C(F)(F)F)ccc32)cc1OCc1cccnc1 (racemic)
Result: 4.51

Request: Now this one: N=C(N)c1ccc(C2Cc3ccccc3B(O)O2)cc1OCc1cccnc1 (racemic)
Result: 4.83

Request: Okay, and N=C(N)c1ccc(C2Cc3ccc(C(F)(F)F)cc3B(O)O2)cc1OCc1cccnc1 (racemic) ?
Result: 4.54

Request: Another molecule: N=C(N)c1ccc(C2Cc3ccc(F)cc3B(O)O2)cc1OCc1cccnc1 (racemic)
Result: 4.66

Request: Also check N=C(N)c1ccc(CC2OB(O)c3cc(F)ccc32)cc1OCc1cccnc1 (racemic)
Result: 4.77

Request: Now this one: Cc1ccc2c(c1)C(Cc1ccc(C(=N)N)c(OCc3cccnc3)c1)OB2O (racemic)
Result: 4.73

Request: What do we get for N=C(N)c1ccc(C2Cc3cc(Cl)c(F)cc3B(O)O2)cc1OCc1cccnc1 (racemic) ?
Result: 4.26

Request: What do you have for N=C(N)c1ccc(CC2OB(O)c3ccc(F)cc32)cc1OCc1cccnc1 (racemic) ?
Result: 4.66

Request: Further, for N=C(N)c1ccc(CC2OB(O)c3ccccc32)cc1OCc1cccnc1 (racemic) ?
Result: 4.8

Request: Try this molecule too: COc1ccc2c(c1)C(Cc1ccc(C(=N)N)c(OCc3cccnc3)c1)OB2O (racemic)
Result: 4.71

----------
# MEASUREMENT_DESCRIPTION: Solubility of the compound in Britton-Robinson buffer at pH 4 measured after 24 hrs
# Format: physicochemical
REPORTED_ENDPOINT: solubility at 24 h

Request: If you can, please state the reported solubility at 24 h value of Cl.N=C(N)c1ccc([C@H]2Cc3ccc(C(F)(F)F)cc3B(O)O2)cc1OCc1cccnc1 .
Result: > 9000 µg/mL

----------
# SYSTEM_NAME: Urokinase-type plasminogen activator (Homo sapiens)
# MEASUREMENT_DESCRIPTION: Inhibition of recombinant human C-terminal 10-His-tagged urokinase (M1 to L431 residues) expressed in mouse NS0 cells using Z-GGR-AMC as substrate incubated for 40 mins by FLINT assay
REPORTED_ENDPOINT: IC50

Request: Quick check: IC50 on Urokinase-type plasminogen activator (Homo sapiens), item N=C(N)c1ccc(CC2OB(O)c3ccc(F)cc32)cc1OCc1cccnc1 (racemic) ?
Result: > 100 µM

Request: Would you mind doing N=C(N)c1ccc(CC2OB(O)c3cc(F)ccc32)cc1OCc1cccnc1 (racemic) as well?
Result: 79.4 µM

Request: Repeat with N=C(N)c1ccc(C2Cc3ccc(F)cc3B(O)O2)cc1OCc1cccnc1 (racemic)
Result: > 100 µM

Request: Further, for N=C(N)c1ccc(CC2OB(O)c3cc(C(F)(F)F)ccc32)cc1OCc1cccnc1 (racemic) ?
Result: > 100 µM

Request: For N=C(N)c1ccc([C@@H]2Cc3ccc(C(F)(F)F)cc3B(O)O2)cc1OCc1cccnc1 then?
Result: > 100 µM

----------
# SYSTEM_NAME: Kallikrein-5 (Homo sapiens, UniProt Q9Y337)
# Sequence (Q9Y337 whole entry): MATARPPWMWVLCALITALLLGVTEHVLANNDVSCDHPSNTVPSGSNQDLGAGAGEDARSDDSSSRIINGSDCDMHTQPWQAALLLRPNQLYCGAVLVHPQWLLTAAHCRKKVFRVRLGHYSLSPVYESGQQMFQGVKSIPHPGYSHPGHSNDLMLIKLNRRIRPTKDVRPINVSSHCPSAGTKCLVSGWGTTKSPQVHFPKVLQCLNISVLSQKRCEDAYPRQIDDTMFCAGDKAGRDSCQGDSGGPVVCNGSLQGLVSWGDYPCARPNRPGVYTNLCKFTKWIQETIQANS
# MEASUREMENT_DESCRIPTION: Inhibition of human recombinant 6His-Q-FLAG-tagged KLK5 expressed in baculovirus infected Sf9 insect cells using (Tos-Gly-Pro-Arg)2[R110].2TFA as substrate measured at 30 secs interval for 5 mins by FLINT assay
Could you please report measured pIC50 for the items listed next?
Quick note: pIC50 values are minus log10 of concentrations in mol/L.

Request: Entry Cl.N=C(N)c1ccc([C@H]2Cc3ccc(C(F)(F)F)cc3B(O)O2)cc1OCc1cccnc1 has what pIC50?
Result: 8.30

Request: And for N=C(N)c1ccc(C2Cc3ccccc3B(O)O2)cc1OCc1ccccc1Cl (racemic) ?
Result: 8.00

Request: What do you get for N=C(N)c1ccc([C@@H]2Cc3ccc(C(F)(F)F)cc3B(O)O2)cc1OCc1cccnc1 ?
Result: 8.30

Request: // next record COc1ccc2c(c1)C(Cc1ccc(C(=N)N)c(OCc3cccnc3)c1)OB2O (racemic)
Result: 7.40

Request: Entry to check: N=C(N)c1ccc(CC2OB(O)c3ccc(F)cc32)cc1OCc1cccnc1 (racemic)
Result: 7.80

Request: Please do the same for N=C(N)c1ccc(COc2cccc3c2B(O)OC3)cc1 as well.
Result: 4.50

Request: Again, but for N=C(N)c1ccc(C2Cc3ccccc3B(O)O2)cc1OCc1cccc(Cl)c1 (racemic)
Result: 8.10

Request: Check Cc1ccc2c(c1)C(Cc1ccc(C(=N)N)c(OCc3cccnc3)c1)OB2O (racemic) too.
Result: 7.70

Request: Next compound up: N=C(N)c1ccc(OCc2ccc3c(c2)B(O)OC3)cc1
Result: 5.20

Request: Can you handle N=C(N)c1ccc(CC2OB(O)c3cc(F)ccc32)cc1OCc1cccnc1 (racemic) next?
Result: 7.90

Request: Now try N=C(N)c1ccc(C2CCCB(O)O2)cc1 (racemic) .
Result: 4.40

Request: Likewise for Cc1cccc2c1B(O)OC(c1ccc(C(=N)N)c(OCc3cccnc3)c1)C2 (racemic) ?
Result: 7.60

Request: Moving on to the next compound: N=C(N)c1ccc(COc2ccc3c(c2)B(O)OC3)cc1
Result: 4.40

Request: Input N=C(N)c1ccc(CC2OB(O)c3cc(C(F)(F)F)ccc32)cc1OCc1cccnc1 (racemic)
Result: 7.90

----------
# SYSTEM_NAME: Kallikrein-1 (Homo sapiens, UniProt P06870)
# MEASUREMENT_DESCRIPTION: Inhibition of human recombinant N-terminal His-tagged and enterokinase cleavage site-fused KLK1 (19 to 262 residues) expressed in baculovirus infected Sf9 insect cells at 10 uM using R110 labelled GSK3162232A as substrate measured at 30 secs interval for 5 mins by FLINT assay relative to control
# Sequence (P06870 25-262 limits assumed): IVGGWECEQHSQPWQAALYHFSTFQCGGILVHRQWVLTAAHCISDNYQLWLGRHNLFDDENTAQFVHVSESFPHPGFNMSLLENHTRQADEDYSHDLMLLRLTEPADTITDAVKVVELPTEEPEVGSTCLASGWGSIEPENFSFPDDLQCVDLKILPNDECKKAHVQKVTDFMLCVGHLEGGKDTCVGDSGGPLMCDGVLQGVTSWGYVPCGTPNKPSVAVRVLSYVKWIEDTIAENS
REPORTED_ENDPOINT: inhibition (%)
Provide only the numeric value, understood in %.

Request: Any idea what its inhibition is? The compound is Cc1ccc2c(c1)C(Cc1ccc(C(=N)N)c(OCc3cccnc3)c1)OB2O (racemic)
Result: 10

Request: // same read-out, input: Cc1cccc2c1B(O)OC(c1ccc(C(=N)N)c(OCc3cccnc3)c1)C2 (racemic)
Result: 27

Request: COc1ccc2c(c1)C(Cc1ccc(C(=N)N)c(OCc3cccnc3)c1)OB2O (racemic) ?
Result: 13

Request: Item: N=C(N)c1ccc(CC2OB(O)c3cc(C(F)(F)F)ccc32)cc1OCc1cccnc1 (racemic)
Result: 24

Request: Now consider N=C(N)c1ccc(NCC2Cc3ccccc3B(O)O2)cc1 (racemic) .
Result: 35

Request: Here is the next compound: N=C(N)c1ccc(CC2OB(O)c3ccc(F)cc32)cc1OCc1cccnc1 (racemic)
Result: 10

----------
Exercise: for every item that follows, state its recorded IC50.
# SYSTEM_NAME: UniProt:P06870
# MEASUREMENT_DESCRIPTION: Inhibition of human recombinant N-terminal His-tagged and enterokinase cleavage site-fused KLK1 (19 to 262 residues) expressed in baculovirus infected Sf9 insect cells using R110 labelled GSK3162232A as substrate measured at 30 secs interval for 5 mins by FLINT assay
# Sequence (P06870 whole entry, the tested form may be a part): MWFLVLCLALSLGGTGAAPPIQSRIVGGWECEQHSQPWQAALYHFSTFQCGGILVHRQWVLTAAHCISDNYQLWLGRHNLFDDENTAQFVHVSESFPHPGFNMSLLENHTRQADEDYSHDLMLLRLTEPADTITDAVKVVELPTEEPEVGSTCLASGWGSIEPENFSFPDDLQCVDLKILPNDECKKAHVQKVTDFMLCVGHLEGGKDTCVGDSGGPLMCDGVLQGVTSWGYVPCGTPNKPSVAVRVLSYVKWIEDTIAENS
All answers are understood in µM, so give the number only.

Request: Returns the measured IC50 for the input compound. Input: N=C(N)c1ccc(CC2OB(O)c3ccccc32)cc1 (racemic)
Result: 5.01

Request: Same question for N=C(N)c1ccc(C2CCCB(O)O2)cc1 (racemic) please.
Result: 63.1

----------
I'd appreciate it if you could supply pIC50 values for the items below.
# SYSTEM_NAME: Plasma kallikrein (Homo sapiens)
# Sequence (P03952 20-390 limits assumed): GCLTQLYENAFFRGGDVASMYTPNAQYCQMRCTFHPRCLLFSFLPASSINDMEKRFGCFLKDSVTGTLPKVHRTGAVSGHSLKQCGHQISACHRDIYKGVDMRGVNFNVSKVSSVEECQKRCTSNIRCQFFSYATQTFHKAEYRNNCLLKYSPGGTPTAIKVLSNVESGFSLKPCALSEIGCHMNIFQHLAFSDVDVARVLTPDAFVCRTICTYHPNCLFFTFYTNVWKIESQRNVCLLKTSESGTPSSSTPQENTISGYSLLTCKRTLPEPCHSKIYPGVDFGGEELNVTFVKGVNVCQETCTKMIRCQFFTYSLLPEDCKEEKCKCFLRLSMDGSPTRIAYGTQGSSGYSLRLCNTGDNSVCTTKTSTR
# Sequence (P03952 391-638 limits assumed): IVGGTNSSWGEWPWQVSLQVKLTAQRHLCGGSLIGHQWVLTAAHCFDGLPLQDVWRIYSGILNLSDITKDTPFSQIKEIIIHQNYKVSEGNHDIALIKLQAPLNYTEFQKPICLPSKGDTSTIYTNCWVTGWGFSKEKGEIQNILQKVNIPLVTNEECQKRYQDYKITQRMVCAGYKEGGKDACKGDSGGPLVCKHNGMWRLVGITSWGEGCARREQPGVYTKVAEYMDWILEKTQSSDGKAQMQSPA
# MEASUREMENT_DESCRIPTION: Inhibition of human C-terminal 6-His-tagged KLKB1 (G20-A638 residues) expressed in mouse NS0 cells using PFR-AMC as substrate incubated for 40 mins by FLINT assay
Remember, pIC50 is on a log scale: it is -log10 of the molar concentration.

Request: Quick check: pIC50 of Cc1cccc2c1B(O)OC(c1ccc(C(=N)N)c(OCc3cccnc3)c1)C2 (racemic) ?
Result: 7.10

Request: Now give it for N=C(N)c1ccc(CC2OB(O)c3cc(C(F)(F)F)ccc32)cc1OCc1cccnc1 (racemic) too.
Result: 6.70

Request: Cl.N=C(N)c1ccc([C@H]2Cc3ccc(C(F)(F)F)cc3B(O)O2)cc1OCc1cccnc1 , same question.
Result: 7.70

Request: Consider next the compound N=C(N)c1ccc(C2Cc3ccc(F)cc3B(O)O2)cc1OCc1cccnc1 (racemic) in the same way.
Result: 7.10

Request: Query N=C(N)c1ccc(CC2OB(O)c3ccccc32)cc1OCc1cccnc1 (racemic) next
Result: 7.10

Request: Same question for Cc1ccc2c(c1)C(Cc1ccc(C(=N)N)c(OCc3cccnc3)c1)OB2O (racemic) please.
Result: 6.10

Request: Another: N=C(N)c1ccc(C2Cc3ccc(C(F)(F)F)cc3B(O)O2)cc1OCc1cccnc1 (racemic)
Result: 8.00

Request: Moving on to the next compound: N=C(N)c1ccc([C@@H]2Cc3ccc(C(F)(F)F)cc3B(O)O2)cc1OCc1cccnc1
Result: 6.40

Request: For N=C(N)c1ccc(C2Cc3cc(Cl)c(F)cc3B(O)O2)cc1OCc1cccnc1 (racemic) then?
Result: 6.70

Request: What about this compound? N=C(N)c1ccc(C2Cc3ccccc3B(O)O2)cc1OCc1cccc(Cl)c1 (racemic)
Result: 8.30

Request: Another compound to look at: N=C(N)c1ccc(C2Cc3ccccc3B(O)O2)cc1OCc1ccccc1Cl (racemic)
Result: 7.30

Request: Record: N=C(N)c1ccc(CC2OB(O)c3cc(F)ccc32)cc1OCc1cccnc1 (racemic)
Result: 6.10

Request: Also COc1ccc2c(c1)C(Cc1ccc(C(=N)N)c(OCc3cccnc3)c1)OB2O (racemic) , if possible.
Result: 5.90

Request: Same again, this time with N=C(N)c1ccc(CC2OB(O)c3ccc(F)cc32)cc1OCc1cccnc1 (racemic)
Result: 6.10

Request: How about N=C(N)c1ccc(C2Cc3ccccc3B(O)O2)cc1OCc1cccnc1 (racemic) ?
Result: 7.00

Recorded values, source ChEMBL document CHEMBL4396973.
